Read-out: Lipoprotein lipase (LPL), LPL (gene 4023)
Test: LTEA_HepaRG_LPL: Life Technologies and Expression Analysis (LTEA) Assay for Lipoprotein lipase (LPL) using HepaRG (AID 2283515)
Conditions: mRNA level, 48 h; actives raise or lower the signal
Calls of active or inactive are those of the source. How the source made its calls: active means hit-call score of the fitted dose curve at least 0.9, where 1 is the maximum; inactive means score below 0.9.
Mark one answer only. Choices: TRUE for active, FALSE for inactive

Record excerpt, results attached:
{"COMPOUND": "Nc1c(Cl)cc([N+](=O)[O-])cc1Cl", "LABEL CLASS": "TRUE"}
{"COMPOUND": "CCc1cnc(C2=NC(C)(C(C)C)C(=O)N2)c(C(=O)O)c1 (centres undefined)", "LABEL CLASS": "FALSE"}
{"COMPOUND": "O=C(O)c1cc(Oc2ccc(C(F)(F)F)cc2Cl)ccc1[N+](=O)[O-]", "LABEL CLASS": "TRUE"}
{"COMPOUND": "C[N+]1(C)CCCCC1", "LABEL CLASS": "FALSE"}
{"COMPOUND": "CCOP(=S)(OCC)Oc1cc(C)nc(C(C)C)n1", "LABEL CLASS": "FALSE"}

**Q:** Just curious, what result did CC(COc1ccc(Oc2ccccc2)cc1)Oc1ccccn1 (centres undefined) get here?
**A:** FALSE

**Q:** Which outcome was assigned to C[Si](Cn1cncn1)(c1ccc(F)cc1)c1ccc(F)cc1 in this test?
**A:** TRUE

**Q:** Please indicate how the test categorized CC[C@H](C)[C@H]1O[C@]2(C=C[C@@H]1C)C[C@@H]1C[C@@H](C/C=C(\C)[C@@H](O[C@H]3C[C@H](OC)[C@@H](O[C@H]4C[C@H](OC)[C@@H](NC)[C@H](C)O4)[C@H](C)O3)[C@@H](C)/C=C/C=C3\CO[C@@H]4[C@H](O)C(C)=C[C@@H](C(=O)O1)[C@]34O)O2 .
**A:** TRUE

**Q:** What is the recorded call for this compound in the test? CC(C)N(C(=O)SCC(Cl)=C(Cl)Cl)C(C)C
**A:** FALSE

**Q:** Returns: the outcome recorded for CCOP(=S)(Oc1cnc(C(C)(C)C)nc1)OC(C)C (centres undefined) in this assay.
**A:** FALSE
